# Tested on: MILI (PIWIL2) piRISC loaded with L1MC piRNA (26 nt);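 also: 1 nM active piRISC with 0.1 nM target library at 33 °C single turnover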
# Assay notes: pre-steady-state target cleavage rate (min^-1); guide: L1MC piRNA 5'p-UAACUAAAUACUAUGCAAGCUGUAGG; higher = faster piRNA-guided slicing of the target
# Test parameters: auxiliary factor: 500 nM mouse GTSF1
Please go through the items and note down their pre-steady-state target cleavage rate.

Given UCCUGGUACAGCUUGCAUAGAAUUUAGUUA , state its recorded pre-steady-state target cleavage rate.
0.229

Can you share its pre-steady-state target cleavage rate? I mean this sequence: UCCUGGAUGUGCUUGCAUAGUAUUUUCAAA
0.00462

# input sequence: UCCUGGAUGAGCUUGCAUAGUAUUUACGUUA ; wanted: its pre-steady-state target cleavage rate
0.189

Given the sequence UCCUCCAACAGCUUGCAUAGUAUUAAGUUA , what is its reported pre-steady-state target cleavage rate?
0.135

Item UCCUGGUAGUCCUUGCAUAGUAUUUAGUUA has what recorded pre-steady-state target cleavage rate?
0.126

Look up pre-steady-state target cleavage rate for this sequence: UCCUCCUACACCUUGCUUAGUAUUUAGUUA
0.193

pre-steady-state target cleavage rate lookup needed for UCCUGCUACAGCUUGCAUUCUAUUUUCAAA , thanks.
0.0184

Given the entry UCCUGGAUGAGCAUCCAUAGUAUUUAGUUA , report its measured pre-steady-state target cleavage rate.
0.231

Need pre-steady-state target cleavage rate, item UCCUGCUACAGCUUGCAUAGUAUAUAGAAA
0.0314

Look up pre-steady-state target cleavage rate for this sequence: UCCUGGUUCAGCUUGGAUAGUAUUUAGUUA
0.191

// pre-steady-state target cleavage rate lookup, key: UCCUGCUAGAGCUUGCAUUGUAUUUAGUUA
0.219

Returns the measured pre-steady-state target cleavage rate for the input sequence. Input: UCCUGGAUGUCCUUGCAUAUUAUUUAGUUA
0.038

Requested field: pre-steady-state target cleavage rate. Item: UCCUGGAUGUGCUUGCAUAGUAUUUACUUA
0.0325

I would be grateful if you could share the reported pre-steady-state target cleavage rate for UCCUGGAACAGCUAGCUUAGUAUUUAGUUA .
0.186

Need pre-steady-state target cleavage rate, item UCCUGGAUGAGCUUGCAUAGGUAUUUAGUUA
0.00411

Given UCCUGCUACAGCUUGCAUAGUAUUUACGUUA , state its recorded pre-steady-state target cleavage rate.
0.21

Need pre-steady-state target cleavage rate of UCCUGGAACAGCUUGCAUACUAUUUAGUAA , thanks.
0.0934

Request the reported pre-steady-state target cleavage rate associated with UCCUGGUACAGCUUGCAUAGUAUUUAGGUUA
0.163

Consider the sequence UCCUCCUACAGGUUGCAUAGUAAUUAGUUA and give its measured pre-steady-state target cleavage rate.
0.205

State the recorded pre-steady-state target cleavage rate for this entry: UCCUGGAUGUGCUAGCAUAGUUUUUAGUUA
0.0108

Quick one: pre-steady-state target cleavage rate for UCCUGGAUCAGCUUGCAUACUAUUUAGUUA ?
0.0716

Report pre-steady-state target cleavage rate for UCCUGGAACAGCUUGCAAACUAUUUAGUUA please.
0.0282

Which pre-steady-state target cleavage rate value is on record for UCCUGGAUCAGCUUGCAUAGUUAAUAGUUA ?
0.017

Quick check: pre-steady-state target cleavage rate of UCCUGGAACAGCUCUGCAUAGUAUUUAGUUA ?
0.268

# pre-steady-state target cleavage rate lookup, item UCCUCCUACAGCUUGCAUAGAAUUUAGUUA
0.1

I am curious: what pre-steady-state target cleavage rate value has been reported for UCCUGGAACUCGUUGCAUAGUAUUUAGAAA ?
0.136

Can you look up the measured pre-steady-state target cleavage rate of UCCUGCUAGCAGCUUGCAUAGUAUUUAGUUA for me?
0.259

Reported pre-steady-state target cleavage rate, sequence UCCUGGAACAGCUUGCUUAGUAUUUACAAA : ____
0.105

###

# Tested on: EfPiwi piRISC loaded with piRNA #1 (26 nt)
# Assay notes: pre-steady-state target cleavage rate (min^-1); auxiliary factor: 500 nM Ephydatia muelleri Gtsf1; guide: piRNA #1 5'p-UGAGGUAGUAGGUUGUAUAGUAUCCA; MIWI and MILI are mouse PIWI proteins and EfPiwi is from a freshwater sponge; tags in brackets are library labels; higher = faster piRNA-guided slicing of the target
Assignment: determine reported pre-steady-state target cleavage rate for the given sequences.

Param item = GGAGACCUUACUAUACAACCUACUACCUCG [g2:g22:cont:t1G] ; retrieve measured pre-steady-state target cleavage rate.
0.062

Could you share which pre-steady-state target cleavage rate value was measured for GGAGUGGAUACUAUACAACCUACUACCUCC [g2:g26:cont:t1C] ?
0.105

May I ask what pre-steady-state target cleavage rate has been recorded for GGAGUGGAUACUAUACAACCUACUAGGACA ?
0.00314

May I ask what pre-steady-state target cleavage rate has been recorded for GGAGAGGAUACUAUACAACCUACUACCUCU [g2:g25:cont:t1U] ?
1.56

Which pre-steady-state target cleavage rate value is on record for GGAGAGGAUACAAUACAACCUACUACGUCA ?
0.00333

For GGAGACCUAACUAAUACAACCUACUACCUCA , what is its reported pre-steady-state target cleavage rate?
0.0103

Quick one: pre-steady-state target cleavage rate for GGAGACCUAACUAUACAACCUACUACGUGA ?
0.0069

Fill in: pre-steady-state target cleavage rate of GGAGUUGGAUACUAUACAACCUACUACCUCA is ___
0.197

Request the reported pre-steady-state target cleavage rate associated with GGAGUGGAAACUAUACAACCUACUACCUCA
0.0504

pre-steady-state target cleavage rate for GGAGUGGAUGACUAUACAACCUACUACCUCA ?
0.00475

// pre-steady-state target cleavage rate lookup, key: GGAGACGAUACUAUACAACCUACUUCCUGA
0.00342

Which measured pre-steady-state target cleavage rate value corresponds to GGAGACGCAUACUAUACAACCUACUACCUCA ?
0.0478

Which value of pre-steady-state target cleavage rate has been reported for GGAGAGGAUACUAUACAACCGUACUACCUCA in the records?
0.00659

Requested read-out: pre-steady-state target cleavage rate. Entry: GGAGAGGAUACUAUACUACCUACUACCUGA
0.00353

# query: pre-steady-state target cleavage rate of entry GGAGACGAUACUAUACAACCUAUACCUCA
0.00289

What does the record list as pre-steady-state target cleavage rate for GGAGUGGAUACUAUACUACCUUCUACCUCA ?
0.00331

# pre-steady-state target cleavage rate lookup, item GGAGACGAUACUAUACAACCUACUAGCUGA
0.00481

Value lookup for pre-steady-state target cleavage rate; key = GGAGACCAUACUAUACAACCUACUUCGUCA
0.00491

Report pre-steady-state target cleavage rate for GGAGAGGAUACUAAACAACCUACUACCUCA please.
0.00787

What pre-steady-state target cleavage rate value was documented for this sequence, GGAGUGGAUACUAUACAACCUCUACCUCA ?
0.0673

For the sequence shown here, GGAGAGGAUACAAUACAACCUACUUCCUCA , give the reported pre-steady-state target cleavage rate.
0.00257

Quick one: pre-steady-state target cleavage rate for GGAGACCUUACUAUACAACCUCCUACCUCA ?
0.00545

Reported pre-steady-state target cleavage rate for GGAGUGGAUACAAUACUACCUACUACCUCA : what is it?
0.00316

Please give the measured pre-steady-state target cleavage rate for this sequence: GGAGACCAUAGUAUACAUCCUACUACCUCA
0.00617

For the sequence GGAGACCAUACUAUACAACCUAGUACGUCA , what pre-steady-state target cleavage rate is on record?
0.00483

I am curious: what pre-steady-state target cleavage rate value has been reported for GGAGAGGAUACUAUGACAACCUACUACCUCA ?
0.102

Request the reported pre-steady-state target cleavage rate associated with GGAGACCAUACUAUACAACCUGACUACCUCA
0.00545

Report pre-steady-state target cleavage rate for GGAGACCUAACUAUACGACCUACUACCUCA please.
0.00758

For the sequence shown here, GGAGACCAUACUAGUACAACCUACUACCUCA , give the reported pre-steady-state target cleavage rate.
0.00796

Can you look up the measured pre-steady-state target cleavage rate of GGAGACCUAACUAUACAACCUACUACCGUCA for me?
0.0162

Entry GGAGAGGAGACUAUACAACCUACUACCUCA : reported pre-steady-state target cleavage rate = ?
0.0151

Need pre-steady-state target cleavage rate, item GGAGUGGAUACUAUACAACCAUGUACCUCA
0.00412

What does the data say about its pre-steady-state target cleavage rate? Entry: GGAGACGAUAGAAUACAACCUACUACCUCA
0.00812

GET /values?readout=pre-steady-state target cleavage rate&item= GGAGACGAUACUAUACAACCUACUACUCUCA
0.00563

Endpoint output: pre-steady-state target cleavage rate of GGAGUGGAUACUAUACAACGCUACUACCUCA . Value?
0.00636

Find the recorded pre-steady-state target cleavage rate belonging to GGAGACCAUACUAUACAACCUACUAACUCA and report it.
0.00957

Reported pre-steady-state target cleavage rate, sequence GGAGACCUUACUAUACAACCUACUACCACA : ____
0.00339

Requested field: pre-steady-state target cleavage rate. Item: GGAGACCUAACUAUACAACCUGCUACCUCA
0.0127

Which value of pre-steady-state target cleavage rate has been reported for GGAGACCAUACUAUACUACCUAGUACCUCA in the records?
0.00377

What does the record list as pre-steady-state target cleavage rate for GGAGACCUAACUAUACAAACUACUACCUCA ?
0.0044

State the recorded pre-steady-state target cleavage rate for this entry: GGAGACCAUACUAUACAACCUACUACGUGA
0.0051

Quick check: pre-steady-state target cleavage rate of GGAGUGGAUACUAUACAUCCAACUACCUCA ?
0.00457

Requested field: pre-steady-state target cleavage rate. Item: GGAGACCAAACUAUACAACCUAGUACCUCA
0.00518

Recorded pre-steady-state target cleavage rate for GGAGUGGAUUCUAUACAAGCUACUACCUCA , please?
0.00371

Query: pre-steady-state target cleavage rate; subject: GGAGACGAUUCUAUACAACCAACUACCUCA
0.00258

// lookup pre-steady-state target cleavage rate for GGAGACCAUAUCUAUACAACCUACUACCUCA
0.124

// pre-steady-state target cleavage rate lookup, key: GGAGACGAUACUAUACAACCUACUACCGUCA
0.00873

Any idea what pre-steady-state target cleavage rate was measured for GGAGACCAUACUAUACAUCCUACUAGCUCA ?
0.00265

What measured pre-steady-state target cleavage rate goes with GGAGUGGAUACUAUACUACCUACUACCACA ?
0.0024

So what does the record say about pre-steady-state target cleavage rate for GGAGACCAUACUAUACAACCUACUACCUCU [g2:g23:cont:t1U] ?
1.45

For the sequence shown here, GGAGACGAUACUAUACAACCUAGUACCUCA , give the reported pre-steady-state target cleavage rate.
0.00506

// pre-steady-state target cleavage rate lookup, key: GGAGACCAUACUAUACAACCUACUAGGUCA
0.00366

I am curious: what pre-steady-state target cleavage rate value has been reported for GGAGACGAUACUAUACAACCUAGUAGCUCA ?
0.00474

Query: pre-steady-state target cleavage rate; subject: GGAGAGGAAACUAUACAACCUACUACCACA
0.00262
